targetSystem: Muscarinic acetylcholine receptor M1 (Rattus norvegicus)
Sequence (P08482 whole entry): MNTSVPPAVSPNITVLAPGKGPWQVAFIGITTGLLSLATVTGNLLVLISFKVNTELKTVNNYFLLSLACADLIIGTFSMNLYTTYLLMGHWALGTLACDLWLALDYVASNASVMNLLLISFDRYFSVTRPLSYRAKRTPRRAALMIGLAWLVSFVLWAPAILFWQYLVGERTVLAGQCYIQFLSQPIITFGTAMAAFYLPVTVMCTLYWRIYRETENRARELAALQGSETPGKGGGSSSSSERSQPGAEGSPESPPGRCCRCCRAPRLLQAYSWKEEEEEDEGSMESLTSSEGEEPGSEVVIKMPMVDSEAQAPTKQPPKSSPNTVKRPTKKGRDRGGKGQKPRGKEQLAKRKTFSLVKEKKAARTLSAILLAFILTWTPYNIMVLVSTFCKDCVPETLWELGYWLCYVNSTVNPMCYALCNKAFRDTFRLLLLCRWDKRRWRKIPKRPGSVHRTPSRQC
measurementNotes: Positive allosteric modulation of rat M1 receptor assessed as increase in acetylcholine-induced calcium flux by FLIPR assay
observedProperty: EC50

Using known records, supply EC50 for CC(C)[C@@H]1N=C(c2ccccc2F)c2cc(Cl)ccc2NC1=S 218 nM

----------
Task for the reader: assign each of the following compounds its reported EC50.
targetSystem: UniProt:P11229
Sequence (P11229 whole entry): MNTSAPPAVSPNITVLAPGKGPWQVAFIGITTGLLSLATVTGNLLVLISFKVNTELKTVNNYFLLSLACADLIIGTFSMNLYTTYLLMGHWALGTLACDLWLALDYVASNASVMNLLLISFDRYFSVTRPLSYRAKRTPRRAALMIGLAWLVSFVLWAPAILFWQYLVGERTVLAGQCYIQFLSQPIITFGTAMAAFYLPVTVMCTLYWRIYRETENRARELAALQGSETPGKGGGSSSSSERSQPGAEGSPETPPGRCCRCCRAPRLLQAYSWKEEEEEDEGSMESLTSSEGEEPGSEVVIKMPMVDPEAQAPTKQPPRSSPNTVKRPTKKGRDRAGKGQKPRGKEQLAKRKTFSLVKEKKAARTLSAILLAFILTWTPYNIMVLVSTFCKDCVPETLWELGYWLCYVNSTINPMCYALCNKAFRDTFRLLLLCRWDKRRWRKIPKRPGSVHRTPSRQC
measurementNotes: Positive allosteric modulation of human wild type M1 receptor assessed as increase in acetylcholine-induced calcium flux by FLIPR assay
One number for each entry, in nM.

entrySmiles	assayResult
FC(F)(F)c1ccc2c(c1)C(c1ccccc1)=NCC(=S)N2	516
CCC[C@]1(C)N=C(c2ccccc2)c2cc(Cl)ccc2NC1=S	104
CC(C)[C@@H]1N=C(c2ccccc2)c2cc(OC(F)(F)F)ccc2NC1=S	232

Shift focus to the following entry.
Check UniProt:P11229 data and give EC50 for CC(C)[C@@H]1N=C(C2CCCCC2)c2cc(Cl)ccc2NC1=S . 414
